# SYSTEM: Prostaglandin D2 receptor (Homo sapiens)
# Sequence (Q13258 whole entry): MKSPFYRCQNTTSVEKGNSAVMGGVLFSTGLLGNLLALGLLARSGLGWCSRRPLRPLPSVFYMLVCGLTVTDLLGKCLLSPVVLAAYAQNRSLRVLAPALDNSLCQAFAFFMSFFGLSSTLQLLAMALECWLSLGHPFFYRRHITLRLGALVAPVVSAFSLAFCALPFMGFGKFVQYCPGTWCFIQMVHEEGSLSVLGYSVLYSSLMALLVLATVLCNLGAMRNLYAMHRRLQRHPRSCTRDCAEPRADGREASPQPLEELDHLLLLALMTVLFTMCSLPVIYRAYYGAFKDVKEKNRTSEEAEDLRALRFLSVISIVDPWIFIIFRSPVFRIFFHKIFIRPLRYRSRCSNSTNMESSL
# ASSAY SUMMARY: Displacement of [3H]-PGD2 from human Prostanoid DP receptor expressed in human HEK293 cells by scintillation counter in presence of 50% human plasma
# Format: cell-based
PROPERTY NAME: IC50 (nM)

A: COc1cc(CC(=O)O)ccc1Oc1ccc(C(=O)NC2CC2)cc1NS(=O)(=O)c1ccc(Cl)cc1Cl
B: CCCCNC(=O)c1ccc(Oc2ccc(CC(=O)O)cc2C)c(NS(=O)(=O)c2ccc(Cl)cc2Cl)c1
C: CCCCNC(=O)c1ccc(Oc2ccc(CC(=O)O)cc2OC)c(NS(=O)(=O)c2cccc(Cl)c2Cl)c1
D: O=C(O)Cc1cc(F)c(Oc2ccc(C(=O)NC3CCC3)cc2NS(=O)(=O)c2ccc(OC(F)(F)F)cc2Cl)cc1F
Query: Could you list the above compounds by IC50, going from the biggest number down? Form field (ranking): labels in requested order.
Reply: C, A, B, D

* * *

# ASSAY SUMMARY: Mean residence time in dog
# Format: ADME, organism-based, Canis lupus familiaris
# CONDITION SUMMARY: in vivo
PROPERTY NAME: MRT (h)
Field: numeric (h). Do not append units.

Query: Endpoint output: MRT of CC(C)(C)NC(=O)c1ccc(Oc2cc(F)c(CC(=O)O)cc2Cl)c(NS(=O)(=O)c2ccc(C3CC3)cc2Cl)c1 [VIDUPIPRANT] . Value?
Reply: 3

* * *

# ASSAY SUMMARY: Oral bioavailability in cynomolgus monkey at 2 mg/kg
# Assay type: ADME, organism-based, Macaca fascicularis
# CONDITION SUMMARY: in vivo
PROPERTY NAME: bioavailability (%)
Your answer is read as %, so omit the unit and give the number.

Query: Param item = CC(C)(C)NC(=O)c1ccc(Oc2cc(F)c(CC(=O)O)cc2Cl)c(NS(=O)(=O)c2ccc(C3CC3)cc2Cl)c1 [VIDUPIPRANT] ; retrieve measured bioavailability.
Reply: 79

* * *

# ASSAY SUMMARY: Oral bioavailability in dog at 2 mg/kg
# Assay type: ADME, organism-based, Canis lupus familiaris
# CONDITION SUMMARY: in vivo
PROPERTY NAME: bioavailability (%)
Give just the number in %; leave the unit off.

Query: I am curious: what bioavailability value has been reported for CC(C)(C)NC(=O)c1ccc(Oc2cc(F)c(CC(=O)O)cc2Cl)c(NS(=O)(=O)c2ccc(C3CC3)cc2Cl)c1 ?
Reply: 100

* * *

# SYSTEM: Prostaglandin D2 receptor 2 (Homo sapiens)
# Sequence (Q9Y5Y4 whole entry): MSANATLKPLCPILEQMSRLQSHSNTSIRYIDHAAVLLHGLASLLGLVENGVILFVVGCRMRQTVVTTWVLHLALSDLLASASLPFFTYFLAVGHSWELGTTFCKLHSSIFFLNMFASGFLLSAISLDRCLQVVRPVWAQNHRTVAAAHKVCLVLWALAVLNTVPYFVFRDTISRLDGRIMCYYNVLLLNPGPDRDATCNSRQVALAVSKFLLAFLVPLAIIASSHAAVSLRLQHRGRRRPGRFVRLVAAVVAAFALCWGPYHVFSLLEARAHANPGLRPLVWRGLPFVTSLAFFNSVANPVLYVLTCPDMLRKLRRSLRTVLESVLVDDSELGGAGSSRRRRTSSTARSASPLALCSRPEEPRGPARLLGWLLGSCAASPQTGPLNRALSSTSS
# ASSAY SUMMARY: Displacement of [3H]-PGD2 from human CRTH2 receptor expressed in human HEK293 cells by scintillation counter in presence of 0.5% bovine serum albumin
# Assay type: cell-based
pIC50: −log10 of the molar value.
PROPERTY NAME: pIC50

Worked set:
>  <STRUCTURE>
O=C(O)Cc1ccc(Oc2ccc(C(=O)NC3CC3)cc2NS(=O)(=O)c2ccc(Cl)cc2Cl)c(Cl)c1

>  <pIC50>
8.15

$$$$
>  <STRUCTURE>
CC(C)(C)NC(=O)c1ccc(Oc2ccc(CC(=O)O)cc2Cl)c(NS(=O)(=O)c2ccc(Cl)cc2)c1

>  <pIC50>
8.05

$$$$
>  <STRUCTURE>
CCCCNC(=O)c1ccc(Oc2ccc(CC(=O)O)cc2Cl)c(NS(=O)(=O)c2ccc(Cl)cc2Cl)c1

>  <pIC50>
8.22

$$$$

a: CC(C)(C)NC(=O)c1ccc(Oc2ccc(CC(=O)O)cc2Cl)c(NS(=O)(=O)c2ccc(Cl)cc2Cl)c1
b: O=C(O)Cc1cc(F)c(Oc2ccc(C(=O)NC3CCC3)cc2NS(=O)(=O)c2ccc(C(F)(F)F)cc2Cl)cc1F
Query: Returns: the argument ( a or b ) having the larger pIC50. Field: selected label. Fill in the label of the entry you choose.
Reply: a

a: CCCCNC(=O)c1ccc(Oc2ccc(CC(=O)O)cc2F)c(NS(=O)(=O)c2ccc(Cl)cc2Cl)c1
b: CCCCNC(=O)c1ccc(Oc2ccc(CC(=O)O)cc2C#N)c(NS(=O)(=O)c2ccc(Cl)cc2Cl)c1
Query: Pick one, a or b : lowest reported pIC50. Kindly give the label for the entry you pick.
Reply: b
(b: 7.74, a: 8.15)
